Each recorded value in this set is attributed to paper PMC5540273.

System: PRKD2
Conditions: concentration: 1 μM, replicates: in singlicate; n = 1;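 also: KINOMEscan kinase panel screen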
In this section we review reported %Inh values for a set of compounds.
measurement label: %Inh (%)

[[record]]
compound = "Cc1ccccc1-n1cnc2c(N)ncnc21"
measurement_label = "%Inh"
recorded_number = 0

[[record]]
compound = "CS(=O)(=O)c1ccc(-c2c(-c3ncn[nH]3)sc(N3CCOCC3)c2C#N)cc1"
measurement_label = "%Inh"
recorded_number = 11

[[record]]
compound = "COc1ccc(CNC(=O)NC2CCN(c3ccnc(Nc4cc(OC)c(OC)c(OC)c4)n3)C2)cc1 (stereo not shown)"
measurement_label = "%Inh"
recorded_number = 0

[[record]]
compound = "Cc1csc(-c2nc(Nc3ccncc3)c3ccccc3n2)n1"
measurement_label = "%Inh"
recorded_number = 78

[[record]]
compound = "O=C(Nc1n[nH]c2nc(-c3nccs3)c(Br)cc12)C1CCCC1"
measurement_label = "%Inh"
recorded_number = 0

[[record]]
compound = "Cc1cccc(-c2nc(Nc3ccncc3)c3ccccc3n2)n1"
measurement_label = "%Inh"
recorded_number = 99

[[record]]
compound = "CCn1c(-c2cccnc2O)nc2cnccc21"
measurement_label = "%Inh"
recorded_number = 0

[[record]]
compound = "COc1cc2nccc(Nc3ccc(NC(=O)c4ccc(C)cc4)c(O)c3)c2cc1OC.Cl"
measurement_label = "%Inh"
recorded_number = 0

[[record]]
compound = "Cn1ccc2ncnc(Oc3ccc(Nc4nc5ccccc5[nH]4)cc3)c21"
measurement_label = "%Inh"
recorded_number = 8

[[record]]
compound = "Fc1cc(Cl)ccc1Nc1ccnc2cc(-c3ccc(CN4CCCCC4)o3)ccc12"
measurement_label = "%Inh"
recorded_number = 0


====

Tested on: CDC2L2
Details: concentration: 1 μM, replicates: in singlicate; n = 1
measurement label: %Inh (%)

[[record]]
molecule = "O=C(O)COc1ncnc2cc(-c3ccc4[nH]ncc4c3)sc12"
recorded_number = 0

[[record]]
molecule = "Nc1ncnc2[nH]c(-c3ccccc3)nc12"
recorded_number = 5

[[record]]
molecule = "Cc1cc(NCC(c2ccccc2)c2ccccc2)nc(NCc2ccc(C(F)(F)F)cc2)n1"
recorded_number = 5

[[record]]
molecule = "O=C(Nc1ccccc1)Nc1cccc(Oc2ccc3nccn3n2)c1"
recorded_number = 5

[[record]]
molecule = "O=C(Nc1n[nH]c2cc(-c3cccc(F)c3F)ccc12)C1CC1"
recorded_number = 0

[[record]]
molecule = "O=C1NC(=O)C(N2CCc3ccccc32)=C1c1ccccc1Cl"
recorded_number = 3

[[record]]
molecule = "O=C(Nc1n[nH]c2nc(-c3nccs3)c(Br)cc12)C1CC1"
recorded_number = 0

[[record]]
molecule = "CC(=O)Nc1nc2cnc(Nc3cc(NC(=O)c4cccc(CCC#N)c4)ccc3C)nc2s1"
recorded_number = 9

[[record]]
molecule = "COc1ccccc1-c1ccc2c(NC(=O)C3CC3)n[nH]c2n1"
recorded_number = 3

[[record]]
molecule = "Fc1cc(Cl)ccc1Nc1ccnc2cc(I)ccc12"
recorded_number = 0

[[record]]
molecule = "Cn1ccc2ncnc(Oc3cccc(C(=O)Nc4ccccc4)c3)c21"
recorded_number = 0

[[record]]
molecule = "COc1ccc(C2=C(Nc3cccc(C(=O)O)c3)C(=O)NC2=O)cc1"
recorded_number = 13

[[record]]
molecule = "CS(=O)(=O)c1ccc(-c2nc3n(c2-c2ccncc2)CCC3)cc1"
recorded_number = 0

[[record]]
molecule = "NC(=O)c1nnc2ccccc2c1N"
recorded_number = 25

[[record]]
molecule = "O=C(Nc1ccc2c(c1)OCO2)NC1CCN(c2ccnc(Nc3ccc(F)cc3)n2)C1 (stereo not shown)"
recorded_number = 0

[[record]]
molecule = "Clc1cc(Cl)cc(Nc2ccnc(Nc3cc(Cl)cc(Cl)c3)n2)c1"
recorded_number = 18

[[record]]
molecule = "COc1ccc(Nc2nccc(NCCNC(=O)Nc3ccccc3F)n2)cc1"
recorded_number = 20

[[record]]
molecule = "COC(=O)c1c(-c2ccccc2)c2cc(OC)ccc2c(=O)n1Cc1ccccc1"
recorded_number = 3

[[record]]
molecule = "Cc1ccccc1-n1cnc2c(N)ncnc21"
recorded_number = 1

[[record]]
molecule = "COc1cc(Nc2nccc(N3CCC(NC(=O)Nc4cc(C)ccc4C)C3)n2)cc(OC)c1OC (stereo not shown)"
recorded_number = 0

[[record]]
molecule = "Cc1ccc(C(=O)Nc2ccc(Nc3ccnc4cc(-c5ccccn5)ccc34)cc2O)cc1.Cl"
recorded_number = 11

[[record]]
molecule = "C[C@@H]1CCCCN1c1cc(-c2ccc3c(N)n[nH]c3c2)nc(N)n1"
recorded_number = 18

